# Tmax per entry
assay-overview: Pharmacokinetic study in rat plasma after oral administration of RCR and WCR oral liquid medicine
Assay type: in vivo, Sprague-Dawley rats
stated-conditions: male, Sprague-Dawley, rat, plasma, po, 24.01 g/kg, oral RCR 24.01 g/kg, n = 6, mean ± SD
quantity: Tmax (min)

molecule="CCC/C=C1\\OC(=O)C2=C1CCC=C2 [Ligustilide, ligustilide]" quantity=Tmax number=13.2
molecule=COc1cc(/C=C/C(=O)O)ccc1O quantity=Tmax number=7.2
molecule="CCCCC1OC(=O)C2=C1CCC=C2 (stereo not shown) [Senkyunolide A, senkyunolide A]" quantity=Tmax number=6.6
molecule="CCC/C=C1\\OC(=O)c2ccccc21 [Butylidenephthalide, butylidenephthalide]" quantity=Tmax number=15

* * *

assay-overview: Pharmacokinetic study in rat plasma after oral administration of RCR and WCR oral liquid medicine
Format: in vivo, Sprague-Dawley rats
stated-conditions: male, Sprague-Dawley, rat, plasma, po, 24.01 g/kg, oral RCR 24.01 g/kg, n = 6, mean ± SD
# Cmax per entry
quantity: Cmax (ng/mL)

compound="CCC/C=C1\\OC(=O)C2=C1CCC=C2 [Ligustilide, ligustilide]" number=289
compound=COc1cc(/C=C/C(=O)O)ccc1O number=47700
compound="CCC/C=C1\\OC(=O)c2ccccc21 [Butylidenephthalide, butylidenephthalide]" number=288
compound="CCCCC1OC(=O)C2=C1CCC=C2 (stereo not shown) [Senkyunolide A, senkyunolide A]" number=653

* * *

# Vd per entry
assay-overview: Pharmacokinetic study in rat plasma after oral administration of RCR and WCR oral liquid medicine
Assay type: in vivo, Sprague-Dawley rats
stated-conditions: oral RCR 24.01 g/kg, n = 6, mean ± SD
quantity: Vd (mL)

compound="CCCCC1OC(=O)C2=C1CCC=C2 (stereo not shown) [Senkyunolide A, senkyunolide A]" number=7378.16
compound="CCC/C=C1\\OC(=O)C2=C1CCC=C2 [Ligustilide, ligustilide]" number=1579.29
compound="COc1cc(/C=C/C(=O)O)ccc1O [Ferulic Acid, ferulic acid]" number=283.95
compound="CCC/C=C1\\OC(=O)c2ccccc21 [Butylidenephthalide, butylidenephthalide]" number=633.78

* * *

assay-overview: Pharmacokinetic study in rat plasma after oral administration of RCR and WCR oral liquid medicine
Type: in vivo, Sprague-Dawley rats
stated-conditions: male, Sprague-Dawley, rat, plasma, po, 24.01 g/kg, oral WCR 24.01 g/kg, n = 6, mean ± SD
quantity: AUC(0-inf) (ng·h/mL)

compound="CCCCC1OC(=O)C2=C1CCC=C2 (stereo not shown) [Senkyunolide A, senkyunolide A]" quantity=AUC(0-inf) number=861
compound="CCC/C=C1\\OC(=O)C2=C1CCC=C2 [Ligustilide, ligustilide]" quantity=AUC(0-inf) number=4040
compound="CCC/C=C1\\OC(=O)c2ccccc21 [Butylidenephthalide, butylidenephthalide]" quantity=AUC(0-inf) number=402
compound=COc1cc(/C=C/C(=O)O)ccc1O quantity=AUC(0-inf) number=4620

* * *

assay-overview: Pharmacokinetic study in rat plasma after oral administration of RCR and WCR oral liquid medicine
Type: in vivo, Sprague-Dawley rats
stated-conditions: male, Sprague-Dawley, rat, plasma, po, 24.01 g/kg, oral RCR 24.01 g/kg, n = 6, mean ± SD
# half-life per entry
quantity: half-life

compound="CCCCC1OC(=O)C2=C1CCC=C2 (stereo not drawn) [Senkyunolide A, senkyunolide A]" result="13.4 h"
compound="CCC/C=C1\\OC(=O)c2ccccc21 [Butylidenephthalide, butylidenephthalide]" result="11.4 h"
compound="CCC/C=C1\\OC(=O)C2=C1CCC=C2 [Ligustilide, ligustilide]" result="8.5 h"

* * *

assay-overview: Pharmacokinetic study in rat plasma after oral administration of RCR and WCR oral liquid medicine
Type: in vivo, Sprague-Dawley rats
stated-conditions: male, Sprague-Dawley, rat, plasma, po, 24.01 g/kg, oral WCR 24.01 g/kg, n = 6, mean ± SD
# Tmax per entry
quantity: Tmax (min)

compound="CCC/C=C1\\OC(=O)C2=C1CCC=C2 [Ligustilide, ligustilide]" units=min number=18
compound=COc1cc(/C=C/C(=O)O)ccc1O units=min number=3.6
compound="CCCCC1OC(=O)C2=C1CCC=C2 (stereo not shown) [Senkyunolide A, senkyunolide A]" units=min number=10.8
compound="CCC/C=C1\\OC(=O)c2ccccc21 [Butylidenephthalide, butylidenephthalide]" units=min number=16.2

* * *

assay-overview: Pharmacokinetic study in rat plasma after oral administration of RCR and WCR oral liquid medicine
Type: in vivo, Sprague-Dawley rats
stated-conditions: male, Sprague-Dawley, rat, plasma, po, 24.01 g/kg, oral RCR 24.01 g/kg, n = 6, mean ± SD
quantity: AUC(0-t) (ng·h/mL)

compound="CCCCC1OC(=O)C2=C1CCC=C2 (stereo not shown) [Senkyunolide A, senkyunolide A]" number=1640
compound="CCC/C=C1\\OC(=O)c2ccccc21 [Butylidenephthalide, butylidenephthalide]" number=743
compound="COc1cc(/C=C/C(=O)O)ccc1O [Ferulic Acid, ferulic acid]" number=13100
compound="CCC/C=C1\\OC(=O)C2=C1CCC=C2 [Ligustilide, ligustilide]" number=4080

* * *

assay-overview: Pharmacokinetic study in rat plasma after oral administration of RCR and WCR oral liquid medicine
Format: in vivo, Sprague-Dawley rats
stated-conditions: male, Sprague-Dawley, rat, plasma, po, 24.01 g/kg, oral RCR 24.01 g/kg, n = 6, mean ± SD
quantity: MRT

compound="CCC/C=C1\\OC(=O)c2ccccc21 [Butylidenephthalide, butylidenephthalide]" result="14.1 h"
compound="COc1cc(/C=C/C(=O)O)ccc1O [Ferulic Acid, ferulic acid]" result="3.21 h"
compound="CCC/C=C1\\OC(=O)C2=C1CCC=C2 [Ligustilide, ligustilide]" result="13.5 h"
compound="CCCCC1OC(=O)C2=C1CCC=C2 (stereo not shown) [Senkyunolide A, senkyunolide A]" result="18.8 h"

* * *

# Cl per entry
assay-overview: Pharmacokinetic study in rat plasma after oral administration of RCR and WCR oral liquid medicine
Assay type: in vivo, Sprague-Dawley rats
stated-conditions: oral RCR 24.01 g/kg, n = 6, mean ± SD
Protocol: RCR (300 g) and WCR (300 g) were weighed and soaked in water (6:1, v/w) for 20 min respectively, then refluxed for 30 min and extracted twice. Finally, the extracts of RCR and WCR were filtered, combined, and concentrated to 1.20 g/mL respectively. The concentrated extracts were stored in a refrigerator at 4 °C before use. […] The pharmacokinetic parameters of the analytes were evaluated using Phoenix WinNonlin software (version 6.0, Pharsight Corporation, CA, USA). […]
quantity: Cl (mL/h)

compound="CCCCC1OC(=O)C2=C1CCC=C2 (stereo not shown) [Senkyunolide A, senkyunolide A]" units=mL/h number=392.87
compound="CCC/C=C1\\OC(=O)C2=C1CCC=C2 [Ligustilide, ligustilide]" units=mL/h number=128.76
compound=COc1cc(/C=C/C(=O)O)ccc1O units=mL/h number=24.08
compound="CCC/C=C1\\OC(=O)c2ccccc21 [Butylidenephthalide, butylidenephthalide]" units=mL/h number=36.61

* * *

assay-overview: Pharmacokinetic study in rat plasma after oral administration of RCR and WCR oral liquid medicine
Assay type: in vivo, Sprague-Dawley rats
stated-conditions: male, Sprague-Dawley, rat, plasma, po, 24.01 g/kg, oral WCR 24.01 g/kg, n = 6, mean ± SD
quantity: MRT (h)

molecule="CCC/C=C1\\OC(=O)C2=C1CCC=C2 [Ligustilide, ligustilide]" quantity=MRT number=21.9
molecule="COc1cc(/C=C/C(=O)O)ccc1O [Ferulic Acid, ferulic acid]" quantity=MRT number=4.05
molecule="CCCCC1OC(=O)C2=C1CCC=C2 (stereo not shown) [Senkyunolide A, senkyunolide A]" quantity=MRT number=9.86
molecule="CCC/C=C1\\OC(=O)c2ccccc21 [Butylidenephthalide, butylidenephthalide]" quantity=MRT number=13.9

* * *

assay-overview: Pharmacokinetic study in rat plasma after oral administration of RCR and WCR oral liquid medicine
Format: in vivo, Sprague-Dawley rats
stated-conditions: oral WCR 24.01 g/kg, n = 6, mean ± SD
quantity: Vd (mL)

compound=COc1cc(/C=C/C(=O)O)ccc1O quantity=Vd units=mL number=1519.30
compound="CCC/C=C1\\OC(=O)c2ccccc21 [Butylidenephthalide, butylidenephthalide]" quantity=Vd units=mL number=3802.37
compound="CCCCC1OC(=O)C2=C1CCC=C2 (stereo not shown) [Senkyunolide A, senkyunolide A]" quantity=Vd units=mL number=8275.68

* * *

# half-life per entry
assay-overview: Pharmacokinetic study in rat plasma after oral administration of RCR and WCR oral liquid medicine
Type: in vivo, Sprague-Dawley rats
stated-conditions: male, Sprague-Dawley, rat, plasma, po, 24.01 g/kg, oral WCR 24.01 g/kg, n = 6, mean ± SD
quantity: half-life (h)

compound="CCCCC1OC(=O)C2=C1CCC=C2 (stereo not drawn) [Senkyunolide A, senkyunolide A]" number=6.32
compound="CCC/C=C1\\OC(=O)C2=C1CCC=C2 [Ligustilide, ligustilide]" number=14.6
compound="CCC/C=C1\\OC(=O)c2ccccc21 [Butylidenephthalide, butylidenephthalide]" number=11
